Tested on: glycogen synthase kinase-3 (GSK3A per assay name; protocol says GSK3B)
Experiment: GSK3 binders on small-molecule microarrays, primary screen, biochemical, small-molecule microarray, 635 nm fluorescence, GSK3A (AID 1103); note: the record names both GSK3A and GSK3B
Details: small-molecule microarray binding, fluorescence 635 nm; higher = more signal
# composite z-score listing for each entry below

Field: example entries. Status: answers known.
COC(=O)[C@@]1(Cc2ccc(F)cc2)[C@H]2c3cc(C(=O)N4CCCC4)n(Cc4cccc5ccccc45)c3C[C@H]2CN1C(=O)c1ccccc1
-0.423
C=C(COC)/C(=C/C[C@H](OC(=O)c1ccncc1)c1cccc(OCCO)c1)c1cc(C(=O)OC)ccc1OC
-0.208
O=C/C=C/c1ccc2c(c1)OCO2
0.469
CC(C)Cc1ccc(CN2CC[C@@H](NS(=O)(=O)c3ccccc3)C2)cc1
-0.375
[N-]=[N+]=Nc1ccccc1[C@H]1OC(c2ccc(OCCCO)cc2)=N[C@@]1(CCS(=O)(=O)c1ccccc1)C(=O)O
-0.359
CCCCCN1CC=CC23O[C@@H]4/C=C\CCC(C)OC(=O)C4[C@H]2C(=O)N(CCCCCO)[C@@H]3C1=O (stereo not given in full)
-0.77
CC(c1ccccc1)C(O)C1C=CC2C(=O)NC(=O)C2N1Nc1ccccn1 (stereo not given)
0.767
O=C1O[C@@H](c2ccccc2)[C@@H](c2ccccc2)N2[C@@H](c3ccc(OCCO)cc3)[C@]3(C(=O)Nc4ccccc43)[C@@H](C(=O)Nc3nc4ccccc4s3)[C@H]12
1.07
CCN(CC)c1ccc(N2CC=CC34O[C@@H]5/C=C\CCCOC(=O)C5[C@H]3C(=O)N(C(CO)C(C)C)[C@@H]4C2=O)cc1 (stereo not given in full)
-0.748
CC(C)CNC(=O)[C@@]1(c2ccc([N+](=O)[O-])cc2)CC(=O)N(CC23CC4CC(CC(C4)C2)C3)[C@@H]1c1ccc(CO)cc1I
1.3

Data request: Given the compound "COC(=O)c1c(CC[C@@H](CO)NC(=O)N[C@@H](Cc2ccccc2)Cn2cc(C3(O)CCCCC3)nn2)oc(C(C)=O)c1C(=O)OC" , what is its reported composite z-score?
Data returned: 0.819

Data request: Next entry: "NCCCCCNC(=O)[C@H]1C[C@H]2C(=O)NCC(=O)N2[C@H]1c1cccc(OCCO)c1"
Data returned: 1.29

Data request: // next record "COCCOC(=O)N1C(=O)[C@@]2(c3cc(C#CCC(C(=O)OC)C(=O)OC)ccc31)[C@H](c1ccc(O)cc1)N1[C@H](c3ccccc3)[C@H](c3ccccc3)OC(=O)[C@H]1[C@@H]2C(N)=O"
Data returned: 1.06

Data request: Same lookup for COC(=O)c1ccc(C23CC2(C(NP(=O)(c2ccccc2)c2ccccc2)c2ccccc2)C3)cc1 (stereo not given) , please.
Data returned: -0.0094

Data request: Another compound: "C=CCN1C(=O)[C@]2(O[C@H](CCO)[C@@H]([Si](C)(C)c3ccc(OC)cc3)[C@@H]2C)c2cc(NC(=O)[C@H](C)O)ccc21"
Data returned: 0.984

----------
Reported z-score values follow for various compounds
Assay: basal HepG2 mitochondrial membrane potential changes, profiling panel, cell-based, JC-1 fluorescence, 24 h, 100 nL compound (AID 1167); note: test concentration not given here
Details: higher = more signal

[N-]=[N+]=NCc1ccccc1[C@H]1OC(c2ccc(OCCCO)cc2)=N[C@@]1(CCS(=O)(=O)c1ccccc1)C(=O)N1CCOCC1
-1.05
CCOC(=O)C1=CCC(C(C)(C)C)N(S(=O)(=O)c2ccc(C)cc2)C1 (configuration not stated)
-1

Data request: Return reported z-score; argument: "CC(=O)NCCCC[C@@H]1NC(=O)[C@@H]2C[C@H](C(=O)NCCCCCCNC(=O)CS)[C@H](c3ccc(O)cc3)N2C1=O"
Data returned: -0.638

Data request: How about CN1C=C(C(=O)OCCS(C)(=O)=O)C(C(=O)OCCS(C)(=O)=O)=CC(CCCO)=CC1C1CC1 (configuration not stated) ?
Data returned: 0.838

Data request: How about "COC(=O)[C@@]1(Cc2ccccc2)[C@H]2c3cc(C(=O)N(C)C)n(Cc4cc(C)n(C)n4)c3C[C@H]2CN1C(=O)c1ccccc1" ?
Data returned: 1.17

Data request: Could you do the same for "CC(C)N1C(=O)[C@@]2(c3ccc([N+](=O)[O-])cc3)CC(=O)N(CC34CC5CC(CC(C5)C3)C4)[C@@H]2c2ccc(CO)cc21" , please?
Data returned: 0.396

Data request: Entry "CC(C)CNC(=O)[C@@]1(c2ccc([N+](=O)[O-])cc2)CC(=O)N(CC23CC4CC(CC(C4)C2)C3)[C@@H]1c1ccc(CO)cc1I" please
Data returned: 1.47
